The reader will find reported activity at 10 µM values listed item by item below.
Tested on: CCRF-CEM
protocol-text: NCI-60 anticancer screen (SRB; single dose 10 μM and five doses)
applied-conditions: Homo sapiens, 48 h, read-out: Growth Percentage
readout-kind: activity at 10 µM (%)

INSERT INTO assay_data (chemical_string, recorded_value) VALUES
  ('Cc1[nH]c(=S)sc1C(=O)/C=C/c1ccc([N+](=O)[O-])cc1', -7.25),
  ('Cc1[nH]c(=S)sc1C(=O)/C=C/c1ccc(N(C)C)cc1', 68.5),
  ('Cc1[nH]c(=S)sc1C(=O)/C=C/c1cccc([N+](=O)[O-])c1', 13.8),
  ('COc1ccc(/C=C/C(=O)c2sc(=S)[nH]c2C)cc1OC', 15.5),
  ('Cc1ccc(/C=C/C(=O)c2sc(=S)[nH]c2C)cc1', 24.6);

* * *

Test system: DU-145
protocol-text: NCI-60 anticancer screen (SRB; single dose and five doses)
applied-conditions: Homo sapiens, DU-145, read-out: TGI
compounds and their reported IC (TGI)
readout-kind: IC (TGI)

INSERT INTO assay_data (compound, readout_kind, recorded_value) VALUES
  ('COc1ccc(/C=C\c2cc(OC)c(OC)c(OC)c2)cc1O [CA-4, Combretastatin-A4, reference compound]', 'IC (TGI)', '78.9 µM'),
  ('Cc1[nH]c(=S)sc1C(=O)/C=C/c1ccc(Cl)cc1', 'IC (TGI)', '17.4 µM'),
  ('Cc1[nH]c(=S)sc1C(=O)/C=C/c1cccc([N+](=O)[O-])c1', 'IC (TGI)', '6.17 µM'),
  ('Cc1[nH]c(=S)sc1C(=O)/C=C/c1cccc(Cl)c1', 'IC (TGI)', '11.5 µM'),
  ('Cc1[nH]c(=S)sc1C(=O)/C=C/c1ccc([N+](=O)[O-])cc1', 'IC (TGI)', '11 µM'),
  ('COc1cc(/C=C/C(=O)c2sc(=S)[nH]c2C)cc(OC)c1OC', 'IC (TGI)', '15.5 µM'),
  ('Cc1[nH]c(=S)sc1C(=O)/C=C/c1ccc(Br)cc1', 'IC (TGI)', '12 µM'),
  ('Cc1[nH]c(=S)sc1C(=O)/C=C/c1ccc(F)cc1', 'IC (TGI)', '15.7 µM');

* * *

Quick record of GI50 values for BT-549.
readout-kind: GI50 (nM)

INSERT INTO measurements (compound, readout_kind, measure_unit, recorded_value) VALUES
  ('COc1cc(/C=C/C(=O)c2sc(=S)[nH]c2C)cc(OC)c1OC [2p]', 'GI50', 'nM', 2950),
  ('Cc1[nH]c(=S)sc1C(=O)/C=C/c1ccc(Br)cc1 [2g]', 'GI50', 'nM', 2600),
  ('Cc1[nH]c(=S)sc1C(=O)/C=C/c1ccc([N+](=O)[O-])cc1 [2i]', 'GI50', 'nM', 5040);

* * *

Heads up, these compounds all have log10(GI50) values measured for UACC-62.
readout-kind: log10(GI50) (log10 of the value in nM)

INSERT INTO assay_data (compound, recorded_value) VALUES
  ('Cc1[nH]c(=S)sc1C(=O)/C=C/c1ccc([N+](=O)[O-])cc1', 4.02),
  ('Cc1[nH]c(=S)sc1C(=O)/C=C/c1cccc(Cl)c1', 3.37),
  ('COc1ccc(/C=C\c2cc(OC)c(OC)c(OC)c2)cc1O [CA-4, Combretastatin-A4, reference compound]', 1.00),
  ('Cc1[nH]c(=S)sc1C(=O)/C=C/c1cccc([N+](=O)[O-])c1', 3.55),
  ('COc1cc(/C=C/C(=O)c2sc(=S)[nH]c2C)cc(OC)c1OC', 3.45);
